- method summary: Inhibition of human 20S proteasome beta 5i preincubated for 1 hr followed by fluorescence based assay
pIC50: −log10 of the molar value.
Label not satisfied if pIC50 falls below 8; label satisfied in every other case.

Some solved cases for reference:
{"columns": ["smiles record", "class"],
 "data": [
  ["Cc1c(C(=O)N[C@@H](CC(C)C)B(O)O)nnn1Cc1ccccc1", "not satisfied"],
  ["Cc1ccc(C[C@H](NC(=O)c2cn(-c3ccccc3)nn2)B2O[C@@H]3C[C@@H]4C[C@@H](C4(C)C)[C@]3(C)O2)c(C)c1", "satisfied"],
  ["COc1ccc(C[C@H](NC(=O)[C@H](C)NC(=O)CN2CCOCC2)C(=O)N[C@@H](Cc2ccccc2)C(=O)[C@@]2(C)CO2)cc1", "not satisfied"]
]}

## Input Textbook exercise: given the entry CC(C)C[C@H](NC(=O)c1cn(Cc2ccccc2)nn1)B(O)O , state whether its pIC50 is greater than or equal to 8.
## Output satisfied

## Input Determine whether measured pIC50 meets or exceeds 8 for Cc1ccc(C[C@H](NC(=O)c2nnn(Cc3ccccc3)c2C)B2O[C@@H]3C[C@@H]4C[C@@H](C4(C)C)[C@]3(C)O2)c(C)c1
## Output satisfied

## Input Entry Cc1ccc(C[C@H](NC(=O)c2cc(Cc3ccccc3)on2)B2O[C@@H]3C[C@@H]4C[C@@H](C4(C)C)[C@]3(C)O2)c(C)c1 : is its pIC50 no less than 8?
## Output satisfied
